Here, each record is paired with measured solubility data.
assay: Aqueous solubility at pH 7.4; format: physicochemical; settings: buffer

Past entries and their recorded results:
| SMILES REPR | ENDPOINT LABEL | REPORTED RESULT |
| --- | --- | --- |
| O=S(=O)(c1ccc(Cl)cc1)N(Cc1ccc(-c2nnn[nH]2)cc1)Cc1cccc(Cl)c1 | solubility | > 100 µM |
| O=C(NCC1CC1)c1ccc(CN(Cc2ccccn2)S(=O)(=O)c2ccc(Cl)cc2)cc1 | solubility | < 10 µM |
| COc1ccc(S(=O)(=O)N(Cc2ccccc2)Cc2ccc(C(=O)NCC3CC3)cc2)cc1 | solubility | < 10 µM |

[Q] Would you mind telling me what solubility value was observed for N#Cc1ccc(S(=O)(=O)N(Cc2ccc(-c3nnn[nH]3)cc2)Cc2ccccn2)cc1 ?
[A] > 100 µM

[Q] Would you mind telling me what solubility value was observed for O=C(NCC1CC1)c1ccc(CN(Cc2ccccc2F)S(=O)(=O)c2ccc(Cl)cc2)cc1 ?
[A] < 10 µM

[Q] Would you mind telling me what solubility value was observed for O=S(=O)(c1ccc(Cl)cc1)N(Cc1ccc(-c2nnn[nH]2)c(F)c1)Cc1ccccn1 ?
[A] > 100 µM

* * *

Here, each record is paired with measured solubility data.
experiment: Aqueous solubility at pH 7.4; format: physicochemical; details: buffer

| SMILES REPR | solubility |
| --- | --- |
| O=C(NC[C@@H]1CCCO1)c1ccc(CN(Cc2ccccc2)S(=O)(=O)c2ccc(Cl)cc2)cc1 | < 10 µM |

[Q] Would you mind telling me what solubility value was observed for CC(C)(C)c1nc(CCN(Cc2ccc(-c3nnn[nH]3)cc2)S(=O)(=O)c2ccc(Cl)cc2)no1 ?
[A] > 100 µM

[Q] Would you mind telling me what solubility value was observed for O=C(NC1(c2ccccc2)CC1)c1ccc(CN(Cc2ccccn2)S(=O)(=O)c2ccc(Cl)cc2)cc1 ?
[A] < 10 µM

# credit: ChEMBL document CHEMBL1158601
